Origin of measurements: PubChem BioAssay (NCI)

- Tested on: MOLT-4 leukemia
- test name: NCI-60 one-dose screen, 48 h (100 = growth as untreated, 0 = no growth, -100 = all killed)
- condition notes: 10 µM
Compounds without any hit were thinned out: in the full panel of roughly 83,000, 20% have a hit.
Lab note: compare growth with 90%, writing criterion met if less and criterion not met if equal or more.

compound	assigned label
NC1=NC(c2ccc(Cl)cc2)C2=C(N1)/C(=C/c1ccc(Cl)cc1)CCC2 (stereo not drawn)	criterion met
CC(C)(C)OC(=O)N1CCc2c(sc3ncnc(N/N=C/c4cccc(Br)c4)c23)C1	criterion met
CC(C)C1=C(O)C2=C(C(=O)C1=O)[C@@]1(C)CCCC(C)(C)[C@@H]1CC2	criterion met
CC[C@@H](C(=O)[C@@H](C)[C@@H](O)[C@H](C)[C@@H]1O[C@@H]([C@@H](CC)C(=O)O)CC[C@@H]1C)C1O[C@]2(C=CC(=O)[C@]3(CC[C@@](C)([C@H]4CC[C@](O)(CC)[C@H](C)O4)O3)O2)[C@H](C)C[C@@H]1C (stereo partly drawn)	criterion met
O=C(Nc1ccccc1)Nc1ncnc2c1ncn2-c1ccccc1	criterion not met
COc1cc(-c2ccc(N=Nc3ccc4c(S(=O)(=O)O)ccc(N)c4c3O)c(OC)c2)ccc1N=Nc1ccc2c(S(=O)(=O)O)ccc(N)c2c1O	criterion not met
N#CCc1csc(Cc2ccccc2)n1	criterion not met
COc1ccc(C(=O)CSc2nc(-c3cc(OC)ccc3OC)cc(-c3ccc(OC)cc3)c2C#N)cc1	criterion not met
COc1cc(-c2ccc[nH]2)[nH]c1/C=C1\N=C(C)C(C(=O)NC(C)C)=C1C	criterion met
CCCCN(CCCC)C(=O)[C@H](CC)[C@@H]1CC[C@@H](C)[C@@H]([C@H](C)[C@@H](O)[C@@H](C)C(=O)[C@H](CC)C2O[C@]3(C=CC(=O)[C@]4(CC[C@@](C)([C@H]5CC[C@](O)(CC)[C@H](C)O5)O4)O3)[C@H](C)C[C@@H]2C)O1 (stereo partly drawn)	criterion met
C=C/C(C)=C/C[C@]1(C)[C@H](C)[C@@H](OC(=O)CCC)[C@H](O)[C@@]23C(=C[C@H](OC)C[C@@H]12)[C@@H](OC(=O)CCC)O[C@H]3OC(C)=O	criterion met
CC(C)(C)OC(=O)N1CCc2c(sc3ncnc(N/N=C/c4cccc5ccccc45)c23)C1	criterion met
Cc1cc(Cl)ccc1Nc1nc(C(F)(F)F)ccc1C(=O)N/N=C/c1c(Cl)cccc1Cl	criterion met
COc1cc2c(Nc3ccc(S(N)(=O)=O)cc3)ncnc2c(OC)c1OC	criterion not met
C#CCOc1c(OC)cc(C(=O)/C(C)=C/c2cccc(N=[N+]=[N-])c2)cc1OC	criterion met
O=S(=O)(O)c1ccc(Cl)cc1	criterion not met
N#Cc1c(-c2ccc(Cl)cc2)cc(-c2cc(O)ccc2O)nc1N	criterion met
COc1ccc2nc(Cl)c(Cn3nnc(Cc4ccccc4)n3)cc2c1	criterion met
CCOC(=O)c1cc(C(=O)c2ccc(OC)c(OC)c2)n2ccncc12	criterion not met
NS(=O)(=O)c1ccc(N2N=C(c3ccccc3)CCC2=O)cc1	criterion not met
O=C(N/N=C/c1c(Cl)cccc1Cl)c1ccccc1Nc1cccc(C(F)(F)F)c1	criterion met
COC(=O)c1c[nH]c2cc(OC(C)C)c(OC(C)C)cc2c1=O	criterion not met
O=S(=O)(NCCCNc1nccc(-c2cn(-c3ccccc3)nc2-c2ccc(Cl)c(O)c2)n1)c1ccccc1	criterion met
CCCCCC(=O)O[C@]1(C(C)=O)CCC2C3CCC4=CC(=O)CC[C@]4(C)C3CC[C@@]21C (stereo partly drawn)	criterion met
COc1cc(/C=C2\CCCC3=C2N=C2SC(C)=CN2C3c2cc(OC)c(OC)c(OC)c2)cc(OC)c1OC (stereo not drawn)	criterion met
COc1cc(OC)c2c(=O)c(O)c(-c3ccccc3)oc2c1	criterion met
COc1ccc(-c2nn(-c3cccc(Cl)c3)cc2-c2cc(-c3ccccc3)[nH]c(=O)c2C#N)cc1	criterion met
CSc1nc(S(C)(=O)=O)nc2[nH]c(=O)[nH]c12	criterion not met
